System: SF-295 CNS
Assay: NCI tumour cell line growth inhibition, 48 h
assay.endpoint: TGI

NC(N)=Nc1nc2ccccc2o1
> 100 µM
CCN(C(=O)N[C@@H](C)C(=O)N[C@@H](Cc1ccccc1)C(=O)OC)c1ccccc1
> 100 µM

Here are 3 molecules. What values of TGI were reported for them?
1. O=C(O)c1cccc(S(=O)(=O)NN2C(=O)CSC2c2ccc(Cl)cc2Cl)c1 (stereo not given)
2. O=C1/C(=C/c2ccc(Cl)cc2)CCCc2ccccc21
3. COC(=O)/C=C/c1cc(OC(C)=O)c2c(c1)C(C(=O)OC)C(c1ccc(OC(C)=O)c(OC(C)=O)c1)O2 (stereo not given)

Resp:
> 100 µM
31.5 µM
14.1 µM

* * *

Consider the following compounds; for each one, report its TGI.
Test system: NCI/ADR-RES ovarian
Assay: NCI tumour cell line growth inhibition, 48 h

C/C1=C\[C@H](C)C[C@H](C)OC(=O)[C@H](C)NC(=O)[C@@H](Cc2ccc(O)c(Br)c2)N(C)C(=O)[C@H](C)NC(=O)[C@@H](C)C1
> 19.8 µM
C=C(C)[C@H]1C2=CC(C(=O)OC)=C(C[C@H](C(=C)C)[C@@H](O)[C@@H](O)C3=C[C@H]1OC3=O)O2
> 100 µM
NNc1ncnc2nc[nH]c12
> 100 µM
COc1cc(/C=C2\CCCCC3=C2N=C2SC(C)=CN2C3c2cc(OC)c(OC)c(OC)c2)cc(OC)c1OC (configuration not stated)
> 100 µM

Here are 5 compounds. What values of TGI were reported for them?
1. O=C(CC(=O)Nc1ccccc1)NNC(Sc1ccccc1)c1cc(N=Nc2ccc(Br)cc2)ccc1O (configuration not stated)
2. CN(C)Cc1cc(C(=O)/C=C/c2ccc([N+](=O)[O-])cc2)cc(CN(C)C)c1O
3. COC(=O)c1ccccc1CC1Cc2cccc(C)c2C1=O (configuration not stated)
4. CN1CC[C@]2(c3cccc(O)c3)CC(=O)/C(=C/c3ccccc3)[C@@H]1C2
5. O=C(OCC(Cl)(Cl)Cl)N1CC[C@H](C2CCCCC2)C1

Resp:
["> 10 µM", "87 µM", "> 100 µM", "16.1 µM", "28.5 µM"]

Here are 3 compounds. What values of TGI were reported for them?
1. C[C@@H]1CC[C@H]2[C@H]1[C@H]1[C@@H](CC[C@]2(C)N=C=S)C1(C)C
2. O=c1[nH]c(O)c(C=Nc2ccc(-c3nc4ccccc4o3)cc2)c(=O)[nH]1
3. NC(=O)c1cc(I)ccc1NC(=O)/C=C/c1ccccc1

Resp:
43.9 µM
9.59 µM
3.92 µM

* * *

Tested on: HCT-116 colon
Assay: NCI tumour cell line growth inhibition, 48 h
Consider the following compounds; for each one, report its TGI.

CCN(CC)c1ccc(/C=C/c2ccnc3ccccc23)cc1
> 100 µM

Here are 2 compounds. What values of TGI were reported for them?
1. O=C(NN1C(=O)CS(=O)(=O)C1c1ccc(C(F)(F)F)cc1)c1ccncc1 (stereo not drawn)
2. O=C(CCSC1=NCCCN1)c1ccc(F)cc1

Resp:
["> 100 µM", "39.3 µM"]

* * *

System: COLO 205 colon
Experiment: NCI tumour cell line growth inhibition, 48 h
Consider the following compounds; for each one, report its GI50.

Sample answers from the record:
O=C(Nc1nc(-c2c[nH]c3ccccc23)cs1)c1n[nH]c(=O)c2ccccc12
2.47 µM
NC(=S)N/N=C/c1ncccc1O
3.48 µM
COc1ccc(Cl)cc1NC(=O)c1ccc(NC2=C(Cl)C(=O)N(Cc3ccccc3)C2=O)cc1
> 100 µM
Cc1nc2sccn2c1-c1nc2sccn2c1/C=C1/C(=O)Nc2ccccc21
2.63 µM

Please look at the following compound next.
Req: Fill in: GI50 of CNCCCNc1ccnc2cc(Cl)ccc12 is ___
Resp: 12.6 µM

* * *

Test system: SK-MEL-5 melanoma
Assay: NCI tumour cell line growth inhibition, 48 h
assay.endpoint: TGI

CC1(C)C=CC(=O)C(O)C(C)(C)C1=O (stereo not given)
> 100 µM

Here are 8 compounds. What values of TGI were reported for them?
1. O=c1[nH]c(O)c(C=Nc2ccc(-c3nc4ccccc4o3)cc2)c(=O)[nH]1
2. COc1cc(C[P+](c2ccccc2)(c2ccccc2)c2ccccc2)cc(OC)c1OC
3. C=C(C)CNCCN
4. COc1cc(O)c2c(=O)c(OC)c(-c3ccc(OC)c(O)c3)oc2c1
5. COCOCCC#CCO
6. Clc1sc(Cl)c2c1[C@@H](Cl)C[C@@H]2Br
7. CCn1cc(-c2ccnc3[nH]c(-c4cccc(CN(C)C)c4)cc23)c(-c2ccc(NC(=O)N(C)C)cc2)n1
8. O=C(NCCCl)O/N=C/c1cccnc1

Resp:
> 100 µM
> 100 µM
> 100 µM
> 100 µM
> 100 µM
> 100 µM
23.6 µM
> 100 µM

Here are 6 compounds. What values of TGI were reported for them?
1. CC(C)(C)OC(=O)NC(CSSCC(NC(=O)OC(C)(C)C)C(=O)O)C(=O)O (stereo not given)
2. C=C(C)[C@@H]1CC[C@]2(CN)CC[C@]3(C)[C@H](CC[C@@H]4[C@@]5(C)CCCNC(C)(C)[C@@H]5CC[C@]43C)[C@@H]12
3. Cn1c2ccccc2c2c(=S)c3ccccc3ccc21
4. O=[N+]([O-])c1ccccc1N=Nc1c(O)[nH]c2c(Cl)cc(Cl)cc12
5. COc1ccc(C(=O)NCCN(C)C)c2nc3ccccc3cc12
6. COc1cccc2c1O/C(=C\c1ccc([N+](=O)[O-])s1)C2=O

Resp:
> 100 µM
3 µM
> 100 µM
> 100 µM
2.54 µM
> 100 µM

* * *

Tested on: SR leukemia
Assay: NCI tumour cell line growth inhibition, 48 h
Where a SMILES comes first, the peptide text is derived from it. The star is where a group is joined. Palmitoyl = CCCCCCCCCCCCCCCC(=O)*
assay.endpoint: TGI

O=c1[nH]c(O)c(C=Nc2ccc(-c3nc4ccccc4o3)cc2)c(=O)[nH]1
> 100 µM
CN1CCN(Cc2cc3c(nn2)-c2ccccc2C3=O)CC1
> 100 µM
C[C@@H]1CCC2[C@@H](C)[C@@H](O[C@H]3O[C@@H]4O[C@@]5(C)CCC6[C@H](C)CCC([C@H]3C)[C@]64OO5)O[C@@H]3O[C@@]4(C)CCC1[C@@]23OO4 (stereo partly drawn)
> 25 µM
O=C1/C(=C/c2ccc(Cl)cc2)CCCc2ccccc21
37 µM
COC(=O)/C=C/c1cc(OC(C)=O)c2c(c1)C(C(=O)OC)C(c1ccc(OC(C)=O)c(OC(C)=O)c1)O2 (stereo not drawn)
30.4 µM

Here are 4 molecules. What values of TGI were reported for them?
1. O=C(O)c1cccc(S(=O)(=O)NN2C(=O)CSC2c2ccc(Cl)cc2Cl)c1 (stereo not drawn)
2. CCCCCCCCCCCCCCCC(=O)N1CCCC1C(=O)NCC(=O)NC(Cc1ccccc1)C(=O)N1CCCC1C(=O)NC(CO)C(=O)NC(Cc1ccc(O)cc1)C(=O)NC(CCCCN)C(=O)NC(CC(C)C)C(=O)NC(CCCN=C(N)N)C(=O)N1CCCC1C(=O)NCC(N)=O (stereo not drawn) (Palmitoyl-PGFPSYKLRPG-NH2; configuration not given here)
3. O=C(O)C(O)C(O)C(O)C(O)CO (stereo not drawn)
4. FC(F)(F)c1ccc2nc(NCc3ccccc3)c(-c3ccccc3)nc2c1

Resp:
83.5 µM
44.9 µM
> 100 µM
80.8 µM

* * *

Tested on: SN12C renal
Assay: NCI tumour cell line growth inhibition, 48 h
Consider the following molecules; for each one, report its TGI.

Here are 4 molecules. What values of TGI were reported for them?
1. CCOC(=O)CC/C(=N/Nc1ccc(Cl)cc1[N+](=O)[O-])C(=O)OCC
2. CC1(C)C=CC(=O)C(O)C(C)(C)C1=O (configuration not stated)
3. COc1ccc(/C=C\c2cc(OC)c(OC)c(OC)c2)cc1OCC(=O)O
4. NCCCn1c2c(c3ccc([N+](=O)[O-])cc3c1=O)C(=O)c1cc(I)ccc1-2

Resp:
1. > 100 µM
2. > 100 µM
3. > 100 µM
4. 1.78 µM

Here are 2 molecules. What values of TGI were reported for them?
1. CC[C@]1(O)C[C@H]2CN(CCc3c([nH]c4ccccc34)C(C(=O)OC)(c3cc4c(cc3OC)N(C)[C@H]3[C@@](O)(C(=O)OC)[C@H](OC(C)=O)[C@]5(CC)[C@@H]6C[C@@H]6CN6CC[C@]43[C@@H]65)C2)C1 (some centres not stated)
2. CCN(CCNS(C)(=O)=O)c1ccc(N)c(C)c1

Resp:
1: > 14.3 µM; 2: 23.9 µM

* * *

Consider the following compounds; for each one, report its TGI.
Test system: MDA-MB-435
Assay: NCI tumour cell line growth inhibition, 48 h
Numbers only, in µM.

Sample answers from the record:
CC1(C)CCc2c(ccc(C(=O)/C=C/c3ccc(O)cc3)c2O)O1
19.9
CCN(Cc1c(F)cccc1OC)c1ccc(CO)c(Cl)c1
39
N#CC(I)CS(=O)(=O)c1ccccc1 (stereo unspecified)
34.5

Req: Fill in: TGI of CNCCCNc1ccnc2cc(Cl)ccc12 is ___
Resp: 28.4
